The reported numbers originate from paper PMC6753678.

Test system: P. falciparum female gametocytes
Assay: P. falciparum female gametogenesis assay (Pf FGAA)
Settings: 1: YES; 0: NO; >10-fold selectivity over cytotox
List of Is compound selective in assay? Pf FGAA active? values.
parameter: Is compound selective in assay? Pf FGAA active?

[
  {
    "compound": "CC(Cc1ccc(NS(=O)(=O)c2ccc(CC(C)NCCc3cccc(Cl)c3)cc2)cc1)NCCc1cccc(Cl)c1 (stereo not drawn) [TCMDC-139797]",
    "recorded-value": "0 (0: NO)"
  },
  {
    "compound": "O=C(Nc1cc(Cl)c(Cl)cc1NC(=O)c1cccc(-c2ccccc2)c1O)c1cccc(-c2ccccc2)c1O [TCMDC-139548]",
    "recorded-value": "0 (0: NO)"
  },
  {
    "compound": "c1ccc(-c2nc(Nc3nc4ccccc4[nH]3)[nH]c2-c2ccccc2)cc1 [TCMDC-139099]",
    "recorded-value": "1 (1: YES)"
  }
]
